The origin of these recorded values is the supplement of paper PMC11219838.

System: Meloidogyne hapla J2
Measurement Protocol: proportion of mobile M. hapla J2 relative to DMSO control (fraction of DMSO control); higher = more viable, less nematicidal, active = 0.7 or less
Measurement Conditions: 60 µM; 5 days; temperature: 20 °C
API: response.call in active, inactive

Clc1ccc(OCc2nc(-c3ccncc3)no2)cc1    inactive
Cc1cccc(-c2nc(-c3ccc4c(c3)OCO4)no2)c1    inactive

# next molecule below
In: For `N#Cc1ccc(OCc2nc(-c3ccc(Br)o3)no2)cc1` , which call appears in the assay record?
Out: inactive

###

For each record, write down the corresponding proportion of mobile C. elegans dauer larvae.
Tested on: Caenorhabditis elegans dauer (daf-2(e1370))
Measurement Protocol: proportion of mobile C. elegans dauer larvae relative to DMSO control (fraction of DMSO control); higher = more viable, less nematicidal, active = 0.63 or less; extreme values may be limits of the assay
Measurement Conditions: 60 µM; 5 days; temperature: 20 °C
Give bare numbers.

Past entries and their recorded results:
CCOc1ccccc1-c1nc(-c2ccc(Cl)cc2)no1    1
Brc1ccc(-c2noc(-c3cccs3)n2)cc1    0.383
COc1cccc(-c2nc(-c3ccc(Cl)cc3)no2)c1    1
CCOc1ccccc1-c1nnc(SCC(=O)c2ccccc2)o1    1
Clc1ccc(-c2nc(C3CCCCC3)no2)cc1    1
c1ccc(COc2cccc(-c3nc(-c4ccncc4)no3)c2)cc1    1
Fc1cccc(Cl)c1CSc1nnc(-c2ccccc2)o1    0.977
COc1ccc(-c2noc(-c3ccc(C)c(Cl)c3)n2)cc1    1
COc1ccc(Cl)cc1NC(=O)CSc1nnc(-c2ccc(C)cc2)o1    1
COc1nc(-c2ccccc2)ccc1-c1noc(C(C)C)n1    1

Give proportion of mobile C. elegans dauer larvae for all compounds that follow.
1. COc1ccc(-c2nnc(SCC(=O)Nc3ccc(Cl)cc3C)o2)cc1
2. Cc1cccc(-c2noc(COc3ccc(Br)cc3)n2)c1
3. Clc1ccc(SCc2nc(-c3ccccc3)no2)cc1
4. Ic1cccc(-c2nc(-c3cccnc3)no2)c1
5. Clc1cccc(-c2nc(-c3ccccc3Cl)no2)c1
6. COc1ccc(-c2noc(-c3ccccc3C(=O)Nc3cccc(C)c3C)n2)cc1

Out:
1: 1; 2: 1; 3: 0.59; 4: 1; 5: 1; 6: 1

Give proportion of mobile C. elegans dauer larvae for all compounds that follow.
1. Fc1cccc(Cl)c1CSc1nnc(-c2ccccc2Cl)o1
2. O=C(CSc1nnc(-c2cccc(Br)c2)o1)c1ccccc1
3. CCOc1ccccc1NC(=O)CSc1nnc(-c2ccccc2)o1

Out:
1
1
1

Give proportion of mobile C. elegans dauer larvae for all compounds that follow.
1. Cc1ccc(-c2nc(-c3ccc(C(F)(F)F)cc3)no2)cc1
2. COc1ccc(-c2noc(COc3ccccc3C)n2)cc1

Out:
1. 0.5
2. 1

###

System: Caenorhabditis elegans dauer (daf-2(e1370))
Measurement Protocol: proportion of mobile C. elegans dauer larvae relative to DMSO control (fraction of DMSO control); higher = more viable, less nematicidal, active = 0.63 or less; extreme values may be limits of the assay
Measurement Conditions: 60 µM; 5 days; temperature: 20 °C
API: response.call in 1 = active, -1 = inactive

Use the examples below as a reference point.
COc1cccc(-c2noc(COc3ccccc3C)n2)c1    -1
Cc1ccc(OCc2nc(-c3ccc(Br)o3)no2)cc1C    -1

In: For `O=C(CSc1nnc(-c2ccc(Br)cc2)o1)Nc1ccc2ccccc2c1` , which call appears in the assay record?
Out: -1

In: For `COc1ccc(-c2noc(COc3ccc(Cl)cc3C)n2)cc1` , which call appears in the assay record?
Out: -1

In: For `Cc1cc(OCc2nc(-c3ccccn3)no2)ccc1Cl` , which call appears in the assay record?
Out: -1

In: For `O=C(CSc1nnc(-c2ccc(Cl)cc2Cl)o1)N1CCCCC1` , which call appears in the assay record?
Out: -1

In: For `O=C(CSc1nnc(-c2ccc(Cl)cc2Cl)o1)c1ccc2c(c1)OCCO2` , which call appears in the assay record?
Out: -1

###

Test system: Meloidogyne hapla J2
Measurement Protocol: proportion of mobile M. hapla J2 relative to DMSO control (fraction of DMSO control); higher = more viable, less nematicidal, active = 0.7 or less
Measurement Conditions: 60 µM; 5 days; temperature: 20 °C
// thresholds for proportion of mobile M. hapla J2 classes: small value = under 0.9, mid value = from 0.9 up to 1, large value = 1 and over

Use the examples below as a reference point.
Cc1cc(OCc2nc(-c3ccncc3)no2)ccc1Br    large value
Cc1cc(C)c(OCc2nc(-c3ccncc3)no2)c(C)c1    mid value
COc1ccc(-c2nnc(SCC(=O)Nc3ccc(Cl)c(Br)c3)o2)cc1    mid value
COc1cccc(-c2nc(-c3ccc(Cl)cc3)no2)c1    large value
CCOc1ccccc1-c1nc(-c2ccc(NC(=O)Cc3ccccc3OC)cc2)no1    large value

In: Consider `Cc1cc(OCc2nc(-c3cccnc3)no2)c(C)cc1Br` . To which proportion of mobile M. hapla J2 class does it belong?
Out: small value

In: Consider `O=C(CSc1nnc(-c2ccc(Cl)cc2Cl)o1)Nc1ccccn1` . To which proportion of mobile M. hapla J2 class does it belong?
Out: small value

In: Consider `CCCc1ccc(-c2nc(-c3cccnc3)no2)cc1` . To which proportion of mobile M. hapla J2 class does it belong?
Out: large value

In: Consider `C=CCOc1ccc(-c2nc(-c3cccnc3)no2)cc1` . To which proportion of mobile M. hapla J2 class does it belong?
Out: mid value

In: Consider COc1ccc(-c2nnc(SCC(=O)N3CC(C)CC(C)C3)o2)cc1 (stereo not given) . To which proportion of mobile M. hapla J2 class does it belong?
Out: large value

In: Consider `O=C(c1ccccc1-c1nc(-c2ccccc2Cl)no1)N1CCCC1` . To which proportion of mobile M. hapla J2 class does it belong?
Out: mid value

In: Consider `Clc1ccc(CSc2nnc(-c3ccccn3)o2)cc1` . To which proportion of mobile M. hapla J2 class does it belong?
Out: small value

###

For each record, write down the corresponding proportion of mobile C. elegans dauer larvae.
Tested on: Caenorhabditis elegans dauer (daf-2(e1370))
Measurement Protocol: proportion of mobile C. elegans dauer larvae relative to DMSO control (fraction of DMSO control); higher = more viable, less nematicidal, active = 0.63 or less; extreme values may be limits of the assay
Measurement Conditions: 60 µM; 5 days; temperature: 20 °C
Answers are plain numbers.

Past entries and their recorded results:
CCCOc1ccc(-c2nc(-c3ccncc3)no2)cc1    0.5
COc1nc(C)ccc1-c1noc(-c2ccc(C(C)(C)C)cc2)n1    1
Cn1c(SCc2cccc(F)c2)nnc1-c1ccco1    1
COc1ccc(CCC(=O)Nc2ccc(-c3noc(-c4ccccc4C)n3)cc2)cc1    1

Give proportion of mobile C. elegans dauer larvae for all compounds that follow.
1. O=C(CSc1nnc(-c2cccc(Cl)c2)o1)N1CCCCC1
2. Cc1ccc(OCc2nc(-c3ccccc3Cl)no2)cc1C

Out:
1: 1; 2: 1

###

For each record, write down the corresponding proportion of mobile D. dipsaci.
System: Ditylenchus dipsaci
Measurement Protocol: proportion of mobile D. dipsaci (mixed stage) relative to DMSO control (fraction of DMSO control); higher = more viable, less nematicidal, active = 0.86 or less; extreme values may be limits of the assay
Measurement Conditions: 60 µM; 5 days; temperature: 20 °C
Give bare numbers.

Past entries and their recorded results:
Cc1c(C(=O)CSc2nnc(-c3ccccc3)o2)c2ccccc2n1C    1
Cc1cc(OCc2nc(-c3ccccn3)no2)ccc1Cl    1
O=C(CSc1nnc(-c2ccco2)o1)Nc1ccc(Br)cc1    1
Cc1cccc(-c2noc(-c3ccccc3F)n2)c1    1

Give proportion of mobile D. dipsaci for all compounds that follow.
1. CCNC(=O)c1ccccc1-c1nc(-c2ccc(F)cc2)no1
2. CCn1cc(C(=O)CSc2nnc(-c3ccccc3)o2)c2ccccc21
3. CCCSc1nnc(-c2ccc(Cl)cc2Cl)o1

Out:
1: 1; 2: 1; 3: 1

###

For each record, write down the corresponding proportion of mobile D. dipsaci.
Tested on: Ditylenchus dipsaci
Measurement Protocol: proportion of mobile D. dipsaci (mixed stage) relative to DMSO control (fraction of DMSO control); higher = more viable, less nematicidal, active = 0.86 or less; extreme values may be limits of the assay
Measurement Conditions: 60 µM; 5 days; temperature: 20 °C

COc1ccc(-c2noc(COc3ccc(Cl)cc3C)n2)cc1    1 (inactive)
COc1ccc(-c2noc(-c3ccc(C)c(C)c3)n2)cc1    1 (inactive)

In: I have this compound here, `Cc1ccc(OCc2nc(-c3ccc(Br)o3)no2)cc1C` , and I need its recorded proportion of mobile D. dipsaci.
Out: 1 (inactive)

###

Test system: Meloidogyne hapla J2
Measurement Protocol: proportion of mobile M. hapla J2 relative to DMSO control (fraction of DMSO control); higher = more viable, less nematicidal, active = 0.7 or less
Measurement Conditions: 60 µM; 5 days; temperature: 20 °C
Measured Property: proportion of mobile M. hapla J2
Answers are plain numbers.

C=C(C)COc1ccc(-c2nc(-c3cccnc3)no2)cc1    0.919
CCCOc1ccc(-c2nc(-c3ccncc3)no2)cc1    0.85

Give proportion of mobile M. hapla J2 for all molecules that follow.
1. O=C(CSc1nnc(-c2ccccc2)o1)Nc1ccccc1C(F)(F)F
2. Fc1ccc(-c2nc(-c3cccc(C(F)(F)F)c3)no2)cc1
3. c1ccc(-c2noc(-c3cccs3)n2)cc1 [tioxazafen]
4. c1coc(-c2nc(-c3cccs3)no2)c1

Out:
0.918
0.939
0.937
1.01
